Consider the following molecules and their measured growth inhibition readings.
Assay: NCI Yeast Anticancer Drug Screen. Data for the mlh1 rad18 strain (AID 175)
Conditions: S. cerevisiae mlh1 rad18 strain growth inhibition; at 5.0 µM (retest, dose inferred, filed as 0.5); hits give high values
The panel holds about 79,000 compounds, 15% with a hit somewhere; the sample as a whole holds those more often.
experimental.endpoint: growth inhibition (%)

CC(=O)[CH-]C(=O)c1ccccc1.CC(=O)[CH-]C(=O)c1ccccc1.C[C@]12CCC(=O)C=C1CC[C@@H]1C2CC[C@@]2(C)C1CC[C@@H]2[O-].C[C@]12CCC(=O)C=C1CC[C@@H]1C2CC[C@@]2(C)C1CC[C@@H]2[O-].Cl.[Ti+4] (stereo partly specified): 47
C[C@]12CC/C(=N\OC(=O)Nc3ccccc3)C=C1CC[C@@H]1C2CC[C@@]2(C)C1CC[C@@H]2OC(=O)Nc1ccccc1 (stereo partly specified): -4
O=C1C(Cl)=C(Cl)C(=O)N1c1ccc(F)cc1: 45
CCOP(=S)(OCC)OC(c1ccc(Cl)cc1)c1ccc(Cl)cc1: -1
CCC1(O)C(=O)OCc2c1cc1n(c2=O)Cc2c-1nc1ccccc1c2OC (stereo unspecified): 43
COC1NC(=O)NC(=O)C1=[N+]=[N-] (stereo unspecified): -120
Cc1c2ccccc2cc2ccccc12: 65
O=c1[nH]cnc2[nH]cc(CN3CCCCC3)c12: 3
O=C(N/N=C/c1cc(Cl)cc(Cl)c1[O-])c1ccccc1O.O=C(N/N=C/c1cc(Cl)cc(Cl)c1[O-])c1ccccc1O.[Mn+2]: 56
CC(=O)[O][Hg][c]1cc2c(cc1O)Cc1cc([N+](=O)[O-])ccc1-2: 99
CC(=O)[O-].[Zn].c1ccc(/C(=N\Nc2ccccn2)c2ccccn2)cc1: 36
CN(CCO)CCO: 10
CC(=O)O.CC(=O)[O-].CC(=O)[O-].[Co+3].[NH-]CC[NH-].[NH-]CC[NH-]: -7
O=C(O)C1C2CCC(C2)C1c1ccccc1 (stereo unspecified): -1
CCC[CH2][Sn]1([CH2]CCC)[O]CC(CN(C)Cc2ccccc2)[O]1 (stereo unspecified): 0
COC1C(O)C(C)OC(OC2C(Oc3cccc4c(O)c5c(=O)oc6ccc(C)c7c(=O)oc(c34)c5c67)OC(C)C(O)C2O)C1O (stereo unspecified): -2
C[CH2][Sn][CH2]C.c1cc[c]([Ge]([c]2ccccc2)[c]2ccccc2)cc1.c1cc[c]([Sn]([c]2ccccc2)[c]2ccccc2)cc1: 99
COC(=O)C(F)C(Br)C(=O)OC (stereo unspecified): 94
NC(=O)CNCc1ccc([As]=O)cc1 (stereo unspecified): 12
Nc1nc(-c2ccccc2)c(-c2ccccc2)[se]1: 6
Clc1ccc(-c2cc(=[N+]3CC[N+](=c4cc(-c5ccc(Cl)cc5)ss4)CC3)ss2)cc1: 7
CC(=O)OCC12CCC(C)=CC1OC1C3(O)N=C(C)OC3C2(C)C12CO2 (stereo unspecified): 46
C[C@]12Cc3conc3C(O)=C1CC[C@@H]1C2CC[C@@]2(C)C1CC[C@@H]2O (stereo partly specified): -1
CCOP(=O)(OCC)/C(C#N)=C/c1cccc(Br)c1: -3
Oc1c(Cl)cc(-c2cc(Cl)c(O)c(Cl)c2)cc1Cl: 99
CCN1CCC(O)(c2ccc(Cl)c(Cl)c2)C(C(=O)c2ccc(Cl)c(Cl)c2)C1 (stereo unspecified): 54
ClCCN(CCCl)CCN1c2ccccc2Sc2ccc(Cl)cc21: 3
OC(c1ccc(Cl)cc1)C(Cl)(Cl)Cl (stereo unspecified): 3
O=[N+]([O-])c1ccc(C=Cc2ccc(C(F)(F)F)cc2)cc1.[C-]#[O+].[C-]#[O+].[C-]#[O+].[Cr]: 12
Cc1ccc2nc3sc(=O)sc3nc2c1: 38
CC(C)(C)C1=CC(=C/C=C/c2cc(C(C)(C)C)[o+]c(C(C)(C)C)c2)C=C(C(C)(C)C)O1: 99
CN(N=O)C(=O)NNC(=O)N(C)N=O: 6
CCC[N+](CCC)(CCC)CCC.N#CN=C([SH2+])[SH2+].N#CN=C([SH2+])[SH2+].[Pt+2]: 20
Cc1ccc(S)cc1.[Pb]: 0
c1ccc([Te][Te]c2ccccc2)cc1: 56
COc1cccc2c1C(=O)c1c(O)c3c(c(O)c1C2=O)C[C@@](O)(/C(C)=N\O)C[C@@H]3OC1CC(N)C(O)C(C)O1 (stereo partly specified): 9
CCN(CCCl)c1ccc(/C=C/C2=[N+](C)c3ccccc3C2(C)C)c(C)c1: -1
O=C(c1ccc(Br)cc1)C1C(c2ccccc2)N1C1CCCCC1 (stereo unspecified): -2
Br[Se]c1ccccn1: 31
C[As](c1ccc(Br)cc1)c1ccc(Br)cc1: 6
Cc1c(N)nc([C@H](CC(N)=O)NC[C@H](N)C(N)=O)nc1C(=O)N[C@H](C(=O)N[C@H](C)[C@@H](O)[C@H](C)C(=O)N[C@H](C(=O)NCCc1nc(-c2nc(C(=O)NCCC[S+](C)C)cs2)cs1)[C@@H](C)O)C(OC1OC(CO)C(O)C(O)C1OC1OC(CO)C(O)C(OC(N)=O)C1O)c1cnc[nH]1 (stereo partly specified): 99

* * *

Assay: NCI Yeast Anticancer Drug Screen. Data for the rad52 strain (AID 147);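 also: 0% = growth of vehicle-treated control cultures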
Details: S. cerevisiae rad52 mutant growth inhibition; at 11.0 µM
Method: Growth inhibition of yeast strains with defined genetic alterations is measured as a screen for potential anti-cancer activity. Selected strains with alterations in DNA damage repair or cell cycle control were exposed to compounds and growth inhibition was measured relative to vehicle treated controls. The strain used in this assay is rad52
About 79,000 compounds went through this panel and 15% of them were active in at least one assay; those are over-represented in the sample as a whole. Active and inactive are the calls of the source. No stated cut-off is given here; in the data, active means growth inhibition above about 70%; inactive means the rest.
Outcomes: Y (active), N (inactive)

Nc1ccccc1C(=O)OCCc1ccccc1: N
Cc1cccc(NC(=O)CBr)c1: Y
Oc1cccnc1[Se]: N
CC1=C[C@H]2O[C@@H]3C[C@H]4OC(=O)/C=C\C=C\C(C(C)O)OCC(O)C(C)CC(=O)OC[C@@]2(C[C@@H]1O)[C@]4(C)[C@@]31CO1 (stereo not given in full): Y
COc1cc([C@@H]2c3cc4c(cc3C[C@@H]3COC(=O)C32)OCO4)cc(OC)c1O (stereo not given in full): Y
CCCCCNC(=O)c1c(O)[nH]c(=S)[nH]c1=O: N
CCNC(=O)OCC1C2=C(C(=O)C(C)=C(N)C2=O)N2CC3C(N3C)C12OC (stereo not given): N
Nc1nc(N)c2c(Cl)c(CNc3ccc(C(=O)NC(CC(=O)O)C(=O)O)cc3)ccc2n1 (stereo not given): N
O=C(O)CCCc1cc(I)c(N(CCCl)CCCl)c(I)c1: N
O=[N+]([O-])c1cc([As](Br)c2ccc(O)c([N+](=O)[O-])c2)ccc1O: Y

* * *

Test: NCI Yeast Anticancer Drug Screen. Data for the bub3 strain (AID 167)
Settings: S. cerevisiae bub3 mutant strain, at 1.2 µM, hits give high values
Compounds without any hit were thinned out: in the full panel of roughly 79,000, 15% have a hit. Active and inactive are the calls of the source. Rule as the data show it: active = growth inhibition above about 70%; inactive = the rest.
experimental.endpoint: growth inhibition

COC(=O)C1=C(C(=O)OC)SC2(S1)C(C(=O)OC)=C(C(=O)OC)Sc1c2ssc1=O: 23% (inactive)
C[C@]12CCc3nonc3C1CC[C@@H]1C2CC[C@]2(C)C(=O)CCC12 (some centres not stated): 1% (inactive)
CSc1ccccc1[As](C)C: -6% (inactive)
Cn1cnc(N)c1C(=N)[Se]: 4% (inactive)
Nc1ccccc1C(=O)OCCc1ccccc1: -10% (inactive)
c1ccc2cc3n[se]nc3cc2c1: -1% (inactive)
CC1=C(O)C(=O)C=C2C1=CC=C1[C@@]2(C)CCC2(C)[C@@H]3C[C@@H](C)C(=O)C[C@]3(C)CC[C@]12C (some centres not stated): -19% (inactive)
NC1=NCC(c2ccc(Cl)cc2)O1 (configuration not stated): -11% (inactive)
CCCCCCCCCC[Se]C#N: 0% (inactive)
CC1CN=C(Nc2ccccc2)S1 (configuration not stated): -26% (inactive)
C/C(=N\O)c1ccc2ccc3ccccc3c2c1: 4% (inactive)
O=C1C=CC(=O)C1(Br)Br: 3% (inactive)
O=C(O)C1C2CCC(C2)C1c1ccccc1 (configuration not stated): -1% (inactive)
O=C1OC2C(O1)C1(Cl)C(Cl)=C(Cl)C2(Cl)C1(Cl)Cl (configuration not stated): -6% (inactive)
CC[C@]1(O)CC(OC2CC(N(C)C)C(O)C(C)O2)c2c(cc3c(c2O)C(=O)c2c(O)cccc2C3=O)[C@@H]1C(=O)OC (some centres not stated): 33% (inactive)
O=S(=O)(O)c1ccc(Cl)cc1.[Cd]: -8% (inactive)
O=[N+]([O-])c1cc([As](Br)c2ccc(O)c([N+](=O)[O-])c2)ccc1O: 97% (active)
O=[N+]([O-])O.[NH-]C1CCCCC1[NH-].[NH-]C1CCCCC1[NH-].[NH-]C1CCCCC1[NH-].[OH-].[OH-].[OH-].[Pt+4].[Pt+4].[Pt+4] (configuration not stated): -4% (inactive)
Oc1cccnc1[Se]: -6% (inactive)
CN(C)CCC(C(=O)C(Br)Br)(c1ccccc1)c1ccccc1: -6% (inactive)
CO[C@H](/C(C)=C/C=C/C(C)=C/c1coc(C)n1)[C@H](C)[C@H]1C[C@@H](O)[C@@]2(C)O[C@H]2/C=C/[C@@H](C)[C@@H]2C[C@@H](CC(=O)O2)C[C@H]2O[C@@H]2C(=O)O1: -19% (inactive)
O=P(Oc1ccc(Cl)cc1)(Oc1ccc(Cl)cc1)N1CC1: -4% (inactive)
Nc1nc(N)c2c(Cl)c(CNc3ccc(C(=O)NC(CC(=O)O)C(=O)O)cc3)ccc2n1 (configuration not stated): 3% (inactive)
CC[C@@]1(O)C(=O)OCc2c1cc1n(c2=O)Cc2cc3c(NC(=O)CN)cccc3nc2-1: -12% (inactive)
Cc1c([N+](=O)[O-])oc2ccc3ccccc3c12: -11% (inactive)
COc1cc(O)c2c(O)c3c(c4c2c1[C@]1(C4)C(C)=CCCC1(C)C)[C@H](O)[C@@]1(O)CC(=O)C(C(N)=O)=C(O)[C@@]1(O)C3=O: -1% (inactive)
CCS(=O)(=O)[O][Sn]([CH2]C)([CH2]C)[O]S(=O)(=O)CC: -5% (inactive)
CCC1(O)C(=O)OCc2c1cc1n(c2=O)Cc2cc3ccccc3nc2-1 (configuration not stated): -14% (inactive)
OC1(c2ccccc2)CC2CCC(C1)N2CCCC(O)(c1ccccc1)c1ccccc1 (configuration not stated): 0% (inactive)
Br[Se]c1ccccn1: -2% (inactive)
S=C1NC2(CCCCC2)NC12CCCCC2: -18% (inactive)
CSC(=Nc1ccccc1)N(c1ccccc1)c1nc(=[N+](C)C)ss1: 1% (inactive)
CC1(C)N=C(N)N=C(N)N1c1cccc(N)c1.[Sn]: -8% (inactive)
CCC(=O)OC1CCn2c1nc1c2C(=O)C(C)=C(N2CC2)C1=O (configuration not stated): 9% (inactive)
C[CH2][Sn]([CH2]C)([O]S(C)(=O)=O)[O]S(C)(=O)=O: -28% (inactive)
[O-][n+]1c2cccc(O)c2[n+]([O-])c2cccc(O)c21: 4% (inactive)
COC(=O)C1c2cc3c(c(O)c2C(O)CC1(C)O)C(=O)c1c(O)cc2c(c1C3=O)OC1OC2(C)C(O)C(N(C)C)C1O (configuration not stated): -4% (inactive)
Nc1nnc(N)n1-n1c(N)nnc1N: -1% (inactive)
COC1CC(CC2CCC(C)C(C(C)C(=O)O)O2)OC2(OC(C)(C3CCC(C)(C4OC(C5OC(O)(CO)C(C)CC5C)CC4C)O3)CC2C)C1C (configuration not stated): -4% (inactive)
CC(=O)O/C(=C1\C[C@H]2[C@@H]3CC=C4C[C@@H](OC(C)=O)CC[C@]4(C)[C@H]3CC[C@]2(C)C1=O)C(F)(F)F: -1% (inactive)
O=[N+]([O-])c1ccc(-n2nc3ccc4c(no[n+]4[O-])c3[n+]2[O-])c([N+](=O)[O-])c1: -3% (inactive)
CC12CCC(C1)C(C)(C)C2OC(=O)c1ccccc1N (configuration not stated): 0% (inactive)
